procedure-summary: Cmax in BALB/c mouse at 10 mg/kg, po by LC-MS/MS analysis
Format: ADME, organism-based
Set-up: dose 10 mg/kg, route oral
condition-label: in vivo
readout: Cmax
Write the numeric value and follow it with the unit.

// worked examples, Cmax included
CCNC(=O)c1cc2c(-c3cc(OCCN4CCC(F)(F)CC4)c(Cl)cc3Cl)nc(N)nc2s1 ... 0.17 µg/mL
CCNC(=O)c1cc2c(-c3cc(OCCN4CCCC4)c(Cl)cc3Cl)nc(N)nc2s1 ... 0.38 µg/mL
CCN(CC)CCOc1cc(-c2nc(N)nc3sc(C(=O)NC4CC4)cc23)c(Cl)cc1Cl ... 0.16 µg/mL

Can you share its Cmax? I mean this compound: CCNC(=O)c1cc2c(-c3cc(OCCCN(C)C)c(Cl)cc3Cl)nc(N)nc2s1
0.396 µg/mL

# iterate: CCN(CC)CCOc1cc(-c2nc(N)nc3sc(C(=O)NCC(F)(F)F)cc23)c(Cl)cc1Cl
0.702 µg/mL

# iterate: CCNC(=O)c1cc2c(-c3cc(OC4CCN(CC)C4)c(Cl)cc3Cl)nc(N)nc2s1 (stereo not given)
0.37 µg/mL

# iterate: CCNC(=O)c1cc2c(-c3cc(OCCN4CCN(C)CC4)c(Cl)cc3Cl)nc(N)nc2s1
0.304 µg/mL

# iterate: CCNC(=O)c1cc2c(-c3cc(OCCNCCOC)c(Cl)cc3Cl)nc(N)nc2s1
0.328 µg/mL

# iterate: CCNC(=O)c1cc2c(-c3cc(OCCN(CC)CC)c(Cl)cc3Cl)nc(N)nc2s1
0.238 µg/mL

# iterate: CCNC(=O)c1cc2c(-c3cc(OCCN(C)C)c(Cl)cc3Cl)nc(N)nc2s1
0.437 µg/mL

====

System: Mus musculus
procedure-summary: Toxicity in Harlan HsdNpa athymic nude mouse assessed as survival at 30 mg/kg, po qd
Assay type: organism-based
Design: dose 30 mg/kg, route oral
condition-label: in vivo
readout: Activity

CCNC(=O)c1cc2c(-c3cc(OC4CCN(CC)C4)c(Cl)cc3Cl)nc(N)nc2s1 (stereo not given) ... Non-toxic
CCNC(=O)c1cc2c(-c3cc(OCCN(CC)CC)c(Cl)cc3Cl)nc(N)nc2s1 ... Toxic
CCNC(=O)c1cc2c(-c3cc(OCCN4CCCC4)c(Cl)cc3Cl)nc(N)nc2s1 ... Non-toxic
CCN(CC)CCOc1cc(-c2nc(N)nc3sc(C(=O)NC4CC4)cc23)c(Cl)cc1Cl ... Toxic

Can you share its Activity? I mean this compound: CCN(CC)CCOc1cc(-c2nc(N)nc3sc(C(=O)NCC(F)(F)F)cc23)c(Cl)cc1Cl
Toxic

====

procedure-summary: Metabolic stability in human liver microsomes assessed as compound turnover at 1 uM after 10 mins in presence of NADPH relative to control without NADPH
Type: ADME, Microsome
condition-label: read-out: Stability
readout: metabolised at 10 min, 1 µM (%)
Answer with a number only, understood to be in %.

Can you share its metabolised at 10 min, 1 µM? I mean this compound: CCNC(=O)c1cc2c(-c3cc(OCCN(CC)CC)c(Cl)cc3Cl)nc(N)nc2s1
17.3

====

procedure-summary: Metabolic stability in C57 mouse liver microsomes assessed as compound turnover at 1 uM after 10 mins in presence of NADPH relative to control without NADPH
Format: ADME, Microsome
condition-label: read-out: Stability
readout: metabolised at 10 min, 1 µM (%)
Answer with a number only, understood to be in %.

Can you share its metabolised at 10 min, 1 µM? I mean this molecule: CCNC(=O)c1cc2c(-c3cc(OCCN(CC)CC)c(Cl)cc3Cl)nc(N)nc2s1
19.3

Provenance of the data: ChEMBL document CHEMBL1158486
